Tested on: bedstraw
Assay: Test B pre/postemergence bedstraw
Type: in vivo, Galium aparine
Conditions: Preemergence, Rate 500 g/ha; scale of 0 to 10 where 0 is no effect and 10 is complete control
recorded_endpoint: Plant response rating, Bedstraw
Reply with the value as a number alone.

Consider the worked cases shown below.
Ask: Name the recorded Plant response rating, Bedstraw for COCCn1c(=O)on(C(=O)N(c2ccc(F)cc2F)C(C)C)c1=O [Compound 628] .
Reply: 10

Ask: Dear colleague, I am looking for the recorded Plant response rating, Bedstraw of the following compound: CC(=O)OCC(CCl)n1c(=O)on(C(=O)N(c2ccc(F)cc2F)C(C)C)c1=O (racemic) [Compound 708]
Reply: 0

Ask: Give its Plant response rating, Bedstraw value. Item: CC(C)N(C(=O)n1oc(=O)n(CC(C)(C)C)c1=O)c1ccc(F)cc1F [Compound 277]
Reply: 2

Ask: // returns reported Plant response rating, Bedstraw for input C#CCn1c(=O)on(C(=O)N(c2ccc(F)cc2)C(C)C)c1=O [Compound 212]
Reply: 10

Ask: Which Plant response rating, Bedstraw reading was recorded for the compound Cc1nc(C)c(Cn2c(=O)on(C(=O)N(c3ccc(F)cc3)C(C)C)c2=O)s1 [Compound 232] ?
Reply: 0

Switching to the query record.
Ask: Which Plant response rating, Bedstraw is reported for this compound? C#CC=CC(C)(C)n1c(=O)on(C(=O)N(c2ccccc2)C(C)C)c1=O [Compound 655]
Reply: 0

---

Redroot pigweed plant response rating values by entry
System: pigweed
Assay: Test B pre/postemergence pigweed
Assay type: in vivo, Amaranthus retroflexus
Settings: Postemergence, Rate 125 g/ha; scale of 0 to 10 where 0 is no effect and 10 is complete control
Form: value (number only, do not type unit).

Ask: Item CC(C)N(C(=O)n1oc(=O)n(-c2ccnn2C)c1=O)c1ccc(F)cc1 with pigweed - Redroot pigweed plant response rating?
Reply: 0

Ask: Query for pigweed: what Redroot pigweed plant response rating does the record show for CC(C)N(C(=O)n1oc(=O)n(CC(F)F)c1=O)c1ccc(F)cc1 ?
Reply: 8

Ask: What Redroot pigweed plant response rating appears in the records for this compound with pigweed? CC(C)N(C(=O)n1oc(=O)n(C(C)(C)C)c1=O)c1ccc(Cl)cc1
Reply: 0

Ask: Short answer please: Redroot pigweed plant response rating, pigweed, entry CC(C)N(C(=O)n1oc(=O)n(CCCCl)c1=O)c1ccc(Cl)cc1
Reply: 4

Ask: API: value(readout=Redroot pigweed plant response rating, system=pigweed) for record C#CC=CC(C)(C)n1c(=O)on(C(=O)N(c2ccccc2)C(C)C)c1=O
Reply: 2

***
Ask: Please state recorded Redroot pigweed plant response rating (tested on pigweed) of CC(C)N(C(=O)n1oc(=O)n(CC2CCCCO2)c1=O)c1ccc(Cl)cc1 (stereo not shown)
Reply: 2

Ask: // fetch pigweed Redroot pigweed plant response rating for Cc1nn(C)c(Cl)c1-n1c(=O)on(C(=O)N(c2ccccc2)C(C)C)c1=O
Reply: 2

Ask: Give the reported Redroot pigweed plant response rating for C=CCn1c(=O)on(C(=O)N(c2ccc(F)cc2F)C(C)C)c1=O (system: pigweed).
Reply: 3

Ask: Notebook entry, pigweed assay: Redroot pigweed plant response rating of C#CC(C)n1c(=O)on(C(=O)N(c2ccc(F)cc2F)C(C)C)c1=O (racemic) = ?
Reply: 2

Ask: Query Redroot pigweed plant response rating on pigweed for COC(=O)C(CCO)n1c(=O)on(C(=O)N(c2ccc(F)cc2)C(C)C)c1=O (stereo not shown)
Reply: 0

---

Tested on: duck salad
Experiment: Test B flood test duck salad
Assay type: in vivo, Heteranthera limosa
Settings: Rate 500 g/ha, headed Pre-emergence (flood test species); scale 0 to 10 (0 no effect, 10 complete control)
recorded_endpoint: Plant response rating, Ducksalad

Ask: What value of Plant response rating, Ducksalad has been recorded for this entry: CCn1c(=O)on(C(=O)N(c2ccccc2)C(C)C)c1=O
Reply: 0

Ask: What value of Plant response rating, Ducksalad has been recorded for this entry: Cc1nc(C)c(Cn2c(=O)on(C(=O)N(c3ccc(F)cc3)C(C)C)c2=O)s1
Reply: 0

---

Each record here notes measured Redroot pigweed plant response rating.
System: pigweed
Assay: Test B pre/postemergence pigweed
Format: in vivo, Amaranthus retroflexus
Conditions: Preemergence, Rate 500 g/ha; scale 0 to 10, 0 is no effect, 10 is complete control
No unit in the answer, only the number.

Completed entries (count: 4):
Ask: // fetch pigweed Redroot pigweed plant response rating for CC(C)N(C(=O)n1oc(=O)n(CCCl)c1=O)c1ccccc1
Reply: 10

Ask: Give the reported Redroot pigweed plant response rating for CC(C)N(C(=O)n1oc(=O)n(C(C)C(=O)N(C)C)c1=O)c1ccccc1 (centres unmarked) (system: pigweed).
Reply: 6

Ask: Hi! What's the reported Redroot pigweed plant response rating for CC(C)N(C(=O)n1oc(=O)n(CC(=O)N(C)C)c1=O)c1ccc(Cl)cc1 on pigweed?
Reply: 8

Ask: Lab request: please report Redroot pigweed plant response rating under test system pigweed for CC(C)N(C(=O)n1oc(=O)n(CC2=NOCC2)c1=O)c1ccc(F)cc1
Reply: 10

Continuing:
Ask: Record lookup: for pigweed, what Redroot pigweed plant response rating belongs to CC(C)N(C(=O)n1oc(=O)n(CC(=O)C2CC2)c1=O)c1ccccc1 ?
Reply: 10

---

System: wheat
Test: Test B pre/postemergence wheat
Assay type: in vivo, Triticum aestivum
Details: Preemergence, Rate 500 g/ha; scale 0 to 10, 0 is no effect, 10 is complete control
Description: […] At the same time, these crop and weed species were also treated with postemergence applications of test chemicals formulated in the same manner. […] Treated plants and controls were maintained in a greenhouse for twelve to sixteen days, after which all species were compared to controls and visually evaluated. […]
recorded_endpoint: Wheat plant response rating
Just the number, please, no unit attached.

Ask: Recall the recorded Wheat plant response rating for CC(C)N(C(=O)n1oc(=O)n(CCl)c1=O)c1ccccc1 with wheat and state it.
Reply: 0

Ask: What Wheat plant response rating appears in the records for this compound with wheat? CC(C)N(C(=O)n1oc(=O)n(CC2=NOCC2)c1=O)c1ccc(F)cc1
Reply: 1

Ask: Which Wheat plant response rating is reported with wheat for this entry: CC(C)N(C(=O)n1oc(=O)n(C(C)C(=O)N(C)C)c1=O)c1ccccc1 (centres unmarked) ?
Reply: 7

Ask: Find the measured Wheat plant response rating: item CC(C)N(C(=O)n1oc(=O)n(CC(=O)C2CC2)c1=O)c1ccccc1 , target or system wheat.
Reply: 6

Could you now look at the following compound, please?
Ask: wheat / Wheat plant response rating / CC(C)N(C(=O)n1oc(=O)n(CC(=O)N(C)C)c1=O)c1ccc(Cl)cc1 : value?
Reply: 0

---

// Corn plant response rating lookup, one value per entry
Tested on: corn
Assay: Test B pre/postemergence corn
Format: in vivo, Zea mays
Details: Preemergence, Rate 125 g/ha; scale of 0 to 10 where 0 is no effect and 10 is complete control
Answer as a number with no unit attached.

Here's what some known entries look like.
Ask: Data request, read-out Corn plant response rating, for C#CC(C)n1c(=O)on(C(=O)N(c2ccc(Cl)cc2)C(C)C)c1=O (racemic)
Reply: 0

Ask: Requested read-out: Corn plant response rating. Entry: CC(C)N(C(=O)n1oc(=O)n(CC2CCC2)c1=O)c1ccccc1
Reply: 0

Here is the next item to consider.
Ask: I would be grateful if you could share the reported Corn plant response rating for CC(C)N(C(=O)n1oc(=O)n(CNC(=O)c2ccccc2)c1=O)c1ccccc1 .
Reply: 0

---

Test system: wheat
Experiment: Test B pre/postemergence wheat
Format: in vivo, Triticum aestivum
Conditions: Rate 500 g/ha, Postemergence; scale 0 to 10, 0 no effect, 10 complete control
// reported Wheat plant response rating per item
Provide a numeric answer; units are not to be included.

Ask: # value lookup — system wheat, readout Wheat plant response rating, item Cc1nc(C)c(Cn2c(=O)on(C(=O)N(c3ccc(F)cc3)C(C)C)c2=O)s1
Reply: 0

Ask: Identify the measured Wheat plant response rating of Cc1cc(C)c(-n2c(=O)on(C(=O)N(c3ccc(F)cc3)C(C)C)c2=O)c(C)c1 for wheat.
Reply: 0

Ask: Give recorded Wheat plant response rating with wheat for the following compound: Cc1nn(C)c(Cl)c1-n1c(=O)on(C(=O)N(c2ccccc2)C(C)C)c1=O
Reply: 0

Ask: Given the entry CC(C)N(C(=O)n1oc(=O)n(CCC2OCCCO2)c1=O)c1ccc(F)cc1 , what Wheat plant response rating was observed with wheat?
Reply: 8

---

Tested on: wild oat
Assay: Test B pre/postemergence wild oat
Assay type: in vivo, Avena fatua
Conditions: Preemergence, Rate 250 g/ha; scale of 0 to 10 where 0 is no effect and 10 is complete control
The following compounds are listed with their measured Wild oats plant response rating values.
Output: the number by itself.

Ask: What is its Wild oats plant response rating for wild oat? Entry: C=CCn1c(=O)on(C(=O)N(c2ccc(Cl)cc2)C(C)C2CC2)c1=O (stereo not drawn) [Compound 325]
Reply: 0

Ask: Which measured Wild oats plant response rating belongs to CCC(CC)n1c(=O)on(C(=O)N(c2ccccc2)C(C)C)c1=O [Compound 354] , tested on wild oat?
Reply: 6

Ask: Notebook entry, wild oat assay: Wild oats plant response rating of CC(C)N(C(=O)n1oc(=O)n(CC(C)(C)C)c1=O)c1ccc(F)cc1F [Compound 277] = ?
Reply: 7

Origin of values: patent US6737383B1
